B1: TPR 5TU (parent)
chain: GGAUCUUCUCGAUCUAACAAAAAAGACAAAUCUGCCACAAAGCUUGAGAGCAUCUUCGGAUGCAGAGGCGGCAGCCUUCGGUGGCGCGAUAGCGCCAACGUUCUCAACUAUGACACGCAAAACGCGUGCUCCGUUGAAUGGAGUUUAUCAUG

Variants of: B1
Assay Info: polymerase ribozyme fitness, log enrichment relative to wild type (log ratio); higher = more active; in vitro selection for triplet polymerase activity
This sample holds only a part of the variants without activity.
Measurement Kind: polymerase ribozyme fitness (log ratio)
The reply should be a number, written without any unit.

{"columns": ["Mutant Id", "polymerase ribozyme fitness (log ratio)"],
 "data": [
  ["U6A A12G A17G A40G C96A A137G", -3.74],
  ["C14G U102A", -4.05],
  ["A20U U53A", -2.36],
  ["A26G C99U", -3.69],
  ["A30U U55A", -2.96],
  ["A41C C57A C96U", -0.533]
]}

In the following, a different variant is considered.
Task: Consider the variant U4C C95U A122U and give its measured polymerase ribozyme fitness (log ratio).
Output: -0.317
